protocolNotes: Partition coefficient measured between octanol and 0.05 M NH4PO4 (pH 7.4) using shake-flask method
Assay type: physicochemical
cond: octanol/0.05 M NH4PO4 buffer
// classify: if (logD < 0.4) True else False

Problem: For the molecule O=[N+]([O-])c1nccn1CC(O)CN1C2CCCCC21 (stereo not given) , is logD under 0.4?
False

Please state whether logD is below 0.4 for O=[N+]([O-])c1nccn1CC(O)CN1CC1 (stereo not given)
True

Is 0.4 strictly greater than the molecule's reported logD? molecule: O=[N+]([O-])c1nccn1CC(O)CNC1C2CCC(C2)[C@@H]1Br (stereo not given in full)
False

Lab note: logD threshold 0.4. Does this molecule come in strictly under it? O=[N+]([O-])c1nccn1CC(O)CNC1CCC[C@H]1Br (stereo not given in full)
False

Just wondering, is logD of O=C(O)C1CCN1CC(O)Cn1ccnc1[N+](=O)[O-] (stereo not given) below 0.4?
True

logD strictly < 0.4 for this molecule? CCOC(=O)C1CCC2C(C1)N2CC(O)Cn1ccnc1[N+](=O)[O-] (stereo not given)
False

Does this molecule meet the criterion logD < 0.4? O=[N+]([O-])c1nccn1CC(O)CN1C2CCCC21 (stereo not given)
True

Is it true that logD reported for O=[N+]([O-])c1nccn1CC(O)CN1C2CCc3ccccc3C21 (stereo not given) is less than 0.4?
False

State whether 0.4 exceeds logD recorded for O=[N+]([O-])c1nccn1CC(O)CN1CCC1 (stereo not given) .
True

Just wondering, is logD of CC1CCCC2C1N2CC(O)Cn1ccnc1[N+](=O)[O-] (stereo not given) below 0.4?
False

Report whether reported logD is lower than 0.4 (strictly) for O=[N+]([O-])c1nccn1CC(O)CN1C2C3CCC(C3)C21 (stereo not given)
False

Hello, I'm reviewing records and need to know if logD of O=[N+]([O-])c1nccn1CC(O)CN1C2CCCCCC21 (stereo not given) is below 0.4. Could you check?
False

Here's an entry: O=[N+]([O-])c1nccn1CC(O)CNC1COCC[C@@H]1Br (stereo not given in full) . Is its logD below 0.4?
True

Is logD strictly under 0.4 for the entry COC(=O)C1CCN1CC(O)Cn1ccnc1[N+](=O)[O-] (stereo not given) ?
True

Lab note: logD threshold 0.4. Does this molecule come in strictly under it? O=[N+]([O-])c1nccn1CC(O)CN1C2CCCCCCC21 (stereo not given)
False
